B1: PDZK1 (parent)
chain: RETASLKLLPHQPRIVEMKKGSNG

Variants of: B1
Test: protein stability index of a GFP-peptide fusion (GPS, HEK-293T) (PSI 1-6); higher = more stable;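 further: lentivirally expressed fusions sorted by FACS into six bins by GFP to DsRed ratio, PSI derived from sequencing read proportions per bin multiplied by bin number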
Conditions: c terminus: a fixed tail appended
Reported protein stability index values are given for each entry in this list.

SEQUENCE_CHANGE | protein stability index
R14H | 3.7
L9A | 3.39
L9E | 3.11
N23K | 4.18
L8S | 3.7
S5W | 2.36
K19P | 4.52
L6K | 3.64
L8V | 3.92
K7D | 4.97
T3M | 3.14
N23T | 3.52
E17K | 3.82
N23V | 3.72
G24V | 4.15
A4R | 3.88
G21K | 3.74
L6P | 4.18
K19H | 2.65
M18C | 4.33
R1K | 3.67
S5K | 2.67
